Hello, the source for this data is patent US20250163164A1, in case you need it.

# Experimental target: T1, human interleukin 13 receptor subunit alpha 2 (IL-13RA2) (human, UniProt Q14627 27-380)
# T1 sequence (looked up): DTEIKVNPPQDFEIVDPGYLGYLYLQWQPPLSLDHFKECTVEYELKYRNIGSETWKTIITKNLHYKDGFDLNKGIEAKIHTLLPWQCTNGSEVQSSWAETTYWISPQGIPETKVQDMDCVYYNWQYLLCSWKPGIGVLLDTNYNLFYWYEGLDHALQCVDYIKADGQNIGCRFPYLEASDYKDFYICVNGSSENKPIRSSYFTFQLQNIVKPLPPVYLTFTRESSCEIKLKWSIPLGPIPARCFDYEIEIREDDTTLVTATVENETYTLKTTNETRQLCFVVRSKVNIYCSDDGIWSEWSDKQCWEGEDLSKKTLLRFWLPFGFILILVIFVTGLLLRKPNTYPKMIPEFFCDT
# Measurement notes: cell-based or functional assay
Readout name: internalization EC50 (pHAb dye), HEK-293/H IL-13RA2 cells (nM)

[[record]]
binder = "xi54A4F7 hIgG1 (antibody, V domains shown) VH: EVKLVESGGGLVKPGGSLKLSCAASGFTFSSYGMSWVRQTPEKRLEWVATISGGGSYTYYPDSVKGRFTISRDNAKNNLYLQMSSLRSEDTALYYCARRDLRSAMDHWGQGTSVTVSS VL: DIVMTQSQKFMSTSVGDRVSVTCRASQNVDINVAWYQQKPGQSPKSLIYSASYRYSGVPDRFTGSGSGTDFTLTISNVQSEDLAEYFCQQYNSYPLTFGGGTKLEIR"
unit_info = "nM"
observed = 1.65

